Could you please report measured protein stability index for the items listed next?
B1: RIPK4 (parent)
chain: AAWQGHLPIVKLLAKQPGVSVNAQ

Variants of: B1
Experimental details: protein stability index of a GFP-peptide fusion (GPS, HEK-293T) (PSI 1-6); higher = more stable;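 further: lentivirally expressed fusions sorted by FACS into six bins by GFP to DsRed ratio, PSI derived from sequencing read proportions per bin multiplied by bin number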
Condition summary: c terminus: a fixed tail appended
Reply briefly: the number, and no unit.

Data point: AAWWGHLPIVKLLAKQPGVSVNAQ [Q4W] ; protein stability index = 1.61

Data point: AAWQGHLPIVKFLAKQPGVSVNAQ [L12F] ; protein stability index = 2.45

Data point: AAWQGHLPIVKLLAKMPGVSVNAQ [Q16M] ; protein stability index = 2.22

Data point: AADQGHLPIVKLLAKQPGVSVNAQ [W3D] ; protein stability index = 3.85

Data point: AAWCGHLPIVKLLAKQPGVSVNAQ [Q4C] ; protein stability index = 3.15

Data point: AAWQGHLPIVKLLAKQPGVSVYAQ [N22Y] ; protein stability index = 1.39

Data point: AKWQGHLPIVKLLAKQPGVSVNAQ [A2K] ; protein stability index = 2.37

Data point: AAWQGHLPIVKLLAWQPGVSVNAQ [K15W] ; protein stability index = 2.04

Data point: AAWQGHDPIVKLLAKQPGVSVNAQ [L7D] ; protein stability index = 3.03

Data point: AAWQGHLPSVKLLAKQPGVSVNAQ [I9S] ; protein stability index = 2.83

Data point: AAWQGHLPIVKLLAKQPGVKVNAQ [S20K] ; protein stability index = 1.96

Data point: AQWQGHLPIVKLLAKQPGVSVNAQ [A2Q] ; protein stability index = 2.62

Data point: AAWQGHLPIVKLLAKQPQVSVNAQ [G18Q] ; protein stability index = 2.53

Data point: AAWVGHLPIVKLLAKQPGVSVNAQ [Q4V] ; protein stability index = 1.7

Data point: AAWQGHLPIVKLLAKQPGVSVNAW [Q24W] ; protein stability index = 1.58

Data point: AAWQGHLAIVKLLAKQPGVSVNAQ [P8A] ; protein stability index = 1.63

Data point: AAPQGHLPIVKLLAKQPGVSVNAQ [W3P] ; protein stability index = 3.82

Data point: ANWQGHLPIVKLLAKQPGVSVNAQ [A2N] ; protein stability index = 3.16

Data point: AAWQGHLPIVKLLAKQPGVSVNIQ [A23I] ; protein stability index = 1.72

Data point: AAWQGHLPIVKLLAKQPGVMVNAQ [S20M] ; protein stability index = 2.29

Data point: AAWQGHLPIVKLLAKQPGVSVNMQ [A23M] ; protein stability index = 1.74

Data point: AAWQGHLPIVKLLAKQPGVSVNFQ [A23F] ; protein stability index = 1.41

Data point: ACWQGHLPIVKLLAKQPGVSVNAQ [A2C] ; protein stability index = 2.19

Data point: AAWQGHLPIVKLLAKQPGVSVNAP [Q24P] ; protein stability index = 1.89

Data point: AAWQGHLPIVKLLAKQPGVAVNAQ [S20A] ; protein stability index = 2.3

Data point: AAWQGHLPIVKLLAKQPGVSVNRQ [A23R] ; protein stability index = 2.64

Data point: AAWQGHLPIVKLLAKQPGVSVNEQ [A23E] ; protein stability index = 2.92

Data point: AAWQGHLPIVVLLAKQPGVSVNAQ [K11V] ; protein stability index = 1.84

Data point: AAWQGHLPIVKQLAKQPGVSVNAQ [L12Q] ; protein stability index = 3.02

Data point: AAWQGPLPIVKLLAKQPGVSVNAQ [H6P] ; protein stability index = 2.67

Data point: AAWQGHLPIVKLLAKQPGVQVNAQ [S20Q] ; protein stability index = 2.35

Data point: AAWQGHLPIVKLLAKQPGVSVLAQ [N22L] ; protein stability index = 2.06

Data point: AAWQGHLPIVKCLAKQPGVSVNAQ [L12C] ; protein stability index = 2.75

Data point: AAWQGHAPIVKLLAKQPGVSVNAQ [L7A] ; protein stability index = 2.1
